- Tested on: β-galactosidase in CMV-LacZ C2C12 myotubes
- test.details: CMV-LacZ secondary screen in C2C12 myotubes (β-Gal stabilizing assay)
- Type: cell-based, mouse
- measurement.parameters: 0.5 uM; C2C12 CMV-LacZ myotubes; fold relative to DMSO
# CMV-LACZ in Myotubes, signal relative to DMSO >= 0.9 gives y, anything below gives n

Hello, I need to know if Cc1cc(OCC(=O)NC(C)C)ccc1Cl [MLS000684034-01] has measured CMV-LACZ in Myotubes, signal relative to DMSO not below 0.9. Thanks!
y

Hello, I need to know if Cc1cccc2c(N=Nc3ccc(S(=O)(=O)Nc4ccc(Cl)cc4)cc3[N+](=O)[O-])c(O)[nH]c12 [MLS000393762-01] has measured CMV-LACZ in Myotubes, signal relative to DMSO not below 0.9. Thanks!
n

Hello, I need to know if O=C(CSc1nnc2c(n1)[nH]c1ccccc12)NCc1ccccc1F [MLS001225512-01] has measured CMV-LACZ in Myotubes, signal relative to DMSO not below 0.9. Thanks!
y

Hello, I need to know if CN(CC(=O)Nc1cccc(F)c1)C(=O)c1ccc(-c2ccc(Cl)cc2)o1 [MLS001078811-01] has measured CMV-LACZ in Myotubes, signal relative to DMSO not below 0.9. Thanks!
n

Hello, I need to know if CC(=O)Nc1ccc(-n2c(C)nc(=O)c(-c3ccccc3)c2C)cc1 [MLS000078709-01] has measured CMV-LACZ in Myotubes, signal relative to DMSO not below 0.9. Thanks!
y

Hello, I need to know if CCOC(=O)c1sc(=N)n(-c2ccc(OC)cc2)c1C [MLS000090135-01] has measured CMV-LACZ in Myotubes, signal relative to DMSO not below 0.9. Thanks!
y

Hello, I need to know if OC(c1nc2ccc(F)cc2[nH]1)C(O)c1nc2ccc(F)cc2[nH]1 (stereo not drawn) [MLS001182368-01] has measured CMV-LACZ in Myotubes, signal relative to DMSO not below 0.9. Thanks!
n

Hello, I need to know if COc1ccccc1C(=O)Nc1ccnn1C1CCN(C(=O)c2ccoc2)CC1 [MLS001083082-01] has measured CMV-LACZ in Myotubes, signal relative to DMSO not below 0.9. Thanks!
y

Hello, I need to know if COc1ccc(CNC(=O)C2CCCN(S(=O)(=O)c3c(C)noc3/C=C/N(C)C)C2)cc1 (stereo not drawn) [MLS000925023-01] has measured CMV-LACZ in Myotubes, signal relative to DMSO not below 0.9. Thanks!
n

Hello, I need to know if COc1ccc(N=Nc2ccc(N)nc2N)cc1 [MLS000736846-01] has measured CMV-LACZ in Myotubes, signal relative to DMSO not below 0.9. Thanks!
n

Hello, I need to know if CCCN(C(=O)c1ccc(S(=O)(=O)N2CCCC2)cc1)C1CCS(=O)(=O)C1 (stereo not drawn) [MLS002161853-01] has measured CMV-LACZ in Myotubes, signal relative to DMSO not below 0.9. Thanks!
y

Hello, I need to know if CCC(=O)c1ccc(OCC(O)CN2CC(C)OC(C)C2)cc1.O=C(O)C(=O)O (stereo not drawn) [MLS000053342-01] has measured CMV-LACZ in Myotubes, signal relative to DMSO not below 0.9. Thanks!
y

Hello, I need to know if COc1ccccc1C(=O)OCc1ccc2sc(C)nc2c1 [MLS001006798-01] has measured CMV-LACZ in Myotubes, signal relative to DMSO not below 0.9. Thanks!
y

Hello, I need to know if CCCCNc1nnc(Cc2ccc(Cl)cc2)c(=O)[nH]1 [MLS001215795-01] has measured CMV-LACZ in Myotubes, signal relative to DMSO not below 0.9. Thanks!
y

Hello, I need to know if COc1ccc(C(=O)Cn2nnc(-c3ccccc3NC(=O)c3ccco3)n2)cc1 [MLS000072290-01] has measured CMV-LACZ in Myotubes, signal relative to DMSO not below 0.9. Thanks!
y

Hello, I need to know if Cc1ccc(Cn2nnc3c(=O)[nH]c(C4CCCN(C(=O)c5ccco5)C4)nc32)cc1 (stereo not drawn) [MLS001217212-01] has measured CMV-LACZ in Myotubes, signal relative to DMSO not below 0.9. Thanks!
y

---

- Test system: α7 integrin (LacZ reporter in α7βgal+/− myoblasts)
- test.details: Myoblast α7+/LacZ integrin FDG assay (Burkin assay in myoblasts, 96-well)
- Type: cell-based, mouse
- measurement.parameters: 5 uM; α7+/LacZ myoblasts, 96-well
Exercise: for every item that follows, state its recorded Burkin Assay in Myoblasts, value relative to DMSO.
Lab note: jot down the number only; don't add units.

Report Burkin Assay in Myoblasts, value relative to DMSO for COC(=O)Cc1c(O)ccn(Cc2ccc3c(c2)OCO3)c1=O [MLS000721525-01] please.
0.9834

Report Burkin Assay in Myoblasts, value relative to DMSO for COCc1c(C(=O)OCc2nc3ccsc3c(=O)[nH]2)oc2ccccc12 [MLS002163386-01] please.
1.034

Report Burkin Assay in Myoblasts, value relative to DMSO for COC(=O)c1ccc(C2C(C(=O)c3cc4ccccc4o3)=C(O)C(=O)N2CCN2CCOCC2)cc1 (stereo not drawn) [MLS001146463-01] please.
0.9027

Report Burkin Assay in Myoblasts, value relative to DMSO for CC(=O)Nc1ccc(NC(=O)[C@@H](NC(=O)c2cccc(C)c2)C(C)C)cc1 [MLS001176897-01] please.
0.9058

Report Burkin Assay in Myoblasts, value relative to DMSO for O=C(COc1cc2oc(=O)c3c(c2cc1Cl)CCCC3)NCC1CCC(C(=O)O)CC1 (stereo not drawn) [MLS001157804-01] please.
0.998

Report Burkin Assay in Myoblasts, value relative to DMSO for COc1cc(/C=C/c2nc(-c3ccccc3O)n[nH]2)cc(OC)c1OC [MLS000548725-01] please.
0.8989

---

- Tested on: α7 integrin (LacZ reporter in α7βgal+/− myoblasts)
- test.details: Myoblast α7+/LacZ integrin FDG assay (Burkin assay in myoblasts, 96-well)
- Type: cell-based, mouse
- measurement.parameters: Mus musculus, Myoblast, 48 h; 40 uM; α7+/LacZ myoblasts, 96-well; read-out: Burkin Assay in Myoblasts, signal relative to DMSO
Exercise: for every item that follows, state its recorded fold induction at 40 µM.
Lab note: jot down the number only; don't add units.

Report fold induction at 40 µM for COc1cc(NC(=O)C2C3C=CC(C3)C2C(=O)O)ccc1NC(=O)c1ccccc1 (centres unmarked) please.
0.923

Report fold induction at 40 µM for `COc1ccc(-n2c(C)c(C(C)=O)c3cc(OC(C)=O)ccc32)cc1` please.
1.3

Report fold induction at 40 µM for `Nc1nccc(-c2ccc(-n3cnc4ccccc43)cc2)n1` please.
1.08

Report fold induction at 40 µM for `COc1nccc(NCc2ccccc2)c1C#N` please.
1.15

Report fold induction at 40 µM for `COc1cc2c(cc1NC(=O)Cc1ccc(C)cc1)oc1ccccc12` please.
0.912

---

- System: β-galactosidase in CMV-LacZ C2C12 myotubes
- test.details: CMV-LacZ secondary screen in C2C12 myotubes (β-Gal stabilizing assay)
- Type: cell-based, mouse
- measurement.parameters: 20 uM; SU9516 analogs, C2C12 CMV-LacZ, N=2
quantity.name: CMV-LACZ in Myotubes, value relative to DMSO
Lab note: jot down the number only; don't add units.

Report CMV-LACZ in Myotubes, value relative to DMSO for Cc1cc(C)c(/C=C2\C(=O)Nc3ccccc32)[nH]1 [NCGC00094381-03] please.
10.9800

Report CMV-LACZ in Myotubes, value relative to DMSO for O=Nc1c(-c2c(O)[nH]c3cc(Br)ccc23)[nH]c2ccccc12 [NCGC00094112-04] please.
0.7190

Report CMV-LACZ in Myotubes, value relative to DMSO for CN1CCN(c2ccccc2/C=C2/C(=O)Nc3ccccc32)CC1 [MLS001182377-01] please.
1.0305

Report CMV-LACZ in Myotubes, value relative to DMSO for CCn1c(O)c(C(C#N)=C2N=c3ccccc3=N2)c2ccccc21 [MLS000564846-01] please.
1.2012

Report CMV-LACZ in Myotubes, value relative to DMSO for O=Nc1c(-c2c(O)[nH]c3ccccc23)[nH]c2ccccc12 [NCGC00015545-02] please.
0.5490

Report CMV-LACZ in Myotubes, value relative to DMSO for O=C1Nc2ccccc2/C1=C/c1ccc([N+](=O)[O-])cc1 [MLS001194544-01] please.
0.9800

Report CMV-LACZ in Myotubes, value relative to DMSO for Cc1[nH]c(/C=C2\C(=O)Nc3ccc(S(=O)(=O)Cc4c(Cl)cccc4Cl)cc32)c(C)c1C(=O)C1CCCN1CN1CCCC1 (stereo not drawn) [NCGC00242500-01] please.
5.2430

Report CMV-LACZ in Myotubes, value relative to DMSO for Cc1ccc2c(c1)/C(=C/c1ccccc1C)C(=O)N2 [MLS001202402-01] please.
0.8847

Report CMV-LACZ in Myotubes, value relative to DMSO for CCc1nc(/C=C2\C(=O)Nc3ccccc32)c[nH]1 [MLS000834755-01] please.
1.2989

Report CMV-LACZ in Myotubes, value relative to DMSO for COc1ccc(C(=O)/C=C2/C(=O)Nc3ccccc32)cc1OC [MLS001163860-01] please.
1.3880

Report CMV-LACZ in Myotubes, value relative to DMSO for COc1ccc2c(c1)/C(=C\c1cccc(/C=C3/C(=O)Nc4ccc(OC)cc43)n1)C(=O)N2 [MLS002702497-01] please.
0.6520

Report CMV-LACZ in Myotubes, value relative to DMSO for N#C/C(=C1/C(=O)Nc2ccc(Br)cc21)c1ccccn1 [MLS001013431-01] please.
1.0682

Report CMV-LACZ in Myotubes, value relative to DMSO for COc1ccc2c(c1)C(=C(C#N)C#N)C(=O)N2CCc1ccccc1 [MLS000763074-01] please.
1.7671

Report CMV-LACZ in Myotubes, value relative to DMSO for Cc1cc(C)c(/C=C2\C(=O)Nc3ccccc32)[nH]1 [NCGC00094381-04] please.
3.8710

Report CMV-LACZ in Myotubes, value relative to DMSO for O=C1C(c2c(O)[nH]c3ccccc23)=Nc2ccccc21 [NCGC00179302-02] please.
1.0030

Report CMV-LACZ in Myotubes, value relative to DMSO for CCN(CC)CCNC(=O)c1c(C)[nH]c(/C=C2\C(=O)Nc3ccc(F)cc32)c1C [NCGC00164631-04] please.
0.6490

Report CMV-LACZ in Myotubes, value relative to DMSO for CC(C)Oc1ccc(C(=O)/C=C2/C(=O)Nc3ccccc32)cc1 [MLS001214276-01] please.
0.5259

Report CMV-LACZ in Myotubes, value relative to DMSO for O=C1Nc2ccccc2/C1=C/c1c[nH]cn1 [MLS000327715-01] please.
1.2200
